targetOrSystem: Ubiquitin carboxyl-terminal hydrolase 8 (Homo sapiens) (UniProt P40818)
Sequence (P40818 whole entry, looked up): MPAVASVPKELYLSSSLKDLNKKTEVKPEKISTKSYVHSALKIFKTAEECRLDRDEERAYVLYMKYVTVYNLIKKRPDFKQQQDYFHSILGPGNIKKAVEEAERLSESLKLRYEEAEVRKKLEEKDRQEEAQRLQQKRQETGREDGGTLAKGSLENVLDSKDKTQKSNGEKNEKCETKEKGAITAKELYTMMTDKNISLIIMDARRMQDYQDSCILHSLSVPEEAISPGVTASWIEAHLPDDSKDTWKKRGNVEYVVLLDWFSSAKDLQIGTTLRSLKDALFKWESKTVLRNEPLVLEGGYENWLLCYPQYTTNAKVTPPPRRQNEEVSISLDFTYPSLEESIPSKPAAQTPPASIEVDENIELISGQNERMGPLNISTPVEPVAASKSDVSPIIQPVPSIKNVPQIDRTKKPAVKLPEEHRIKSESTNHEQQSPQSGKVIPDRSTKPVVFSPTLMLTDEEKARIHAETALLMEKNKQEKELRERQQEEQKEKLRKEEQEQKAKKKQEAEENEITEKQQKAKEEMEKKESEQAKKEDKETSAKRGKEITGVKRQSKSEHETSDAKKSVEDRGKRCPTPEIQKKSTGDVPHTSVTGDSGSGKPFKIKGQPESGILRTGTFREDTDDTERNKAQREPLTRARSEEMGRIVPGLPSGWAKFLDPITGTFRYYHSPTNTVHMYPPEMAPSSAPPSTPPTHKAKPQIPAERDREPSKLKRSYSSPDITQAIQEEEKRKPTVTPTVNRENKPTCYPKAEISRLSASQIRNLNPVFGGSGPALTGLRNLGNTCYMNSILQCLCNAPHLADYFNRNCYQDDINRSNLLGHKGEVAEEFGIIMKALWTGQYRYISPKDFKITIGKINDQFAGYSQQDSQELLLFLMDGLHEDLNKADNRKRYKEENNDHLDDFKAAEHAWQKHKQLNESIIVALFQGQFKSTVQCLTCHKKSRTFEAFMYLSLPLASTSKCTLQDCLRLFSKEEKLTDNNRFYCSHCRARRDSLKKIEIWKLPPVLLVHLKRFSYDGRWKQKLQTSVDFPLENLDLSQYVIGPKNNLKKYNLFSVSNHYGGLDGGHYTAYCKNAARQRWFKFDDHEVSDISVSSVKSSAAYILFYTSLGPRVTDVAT
assayInfo: Ubiquitin-specific protease 8 inhibitors, concentration-effect, biochemical, validation of initial actives (AID 1645862);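 further: potency reflects inhibition of USP8 cleavage of a ubiquitin rhodamine substrate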
experimentalSetup: recombinant USP8 deubiquitinase activity assay
The source made the active and inactive calls. How the calls were made is not given here.
Write down the outcome that applies. Available outcomes: active, inactive

As a guide, the following entries are already answered.
- compoundSmiles: "CCCc1nnc(NC(=O)c2cc(-c3ccccc3O)n[nH]2)s1"
  cat: "inactive"
- compoundSmiles: "COc1ccc2c(c1)CCc1c-2nc2ccccc2c1N1CCOCC1"
  cat: "inactive"
- compoundSmiles: "CS(=O)(=O)c1cccc(-c2nnc(NC(=O)c3ccc(Cc4ccccc4)cc3)o2)c1"
  cat: "inactive"
- compoundSmiles: "Cc1nc(-c2noc(-c3cccc(F)c3)n2)cn1CC(=O)Nc1ccccc1"
  cat: "active"

Now look at this entry.
Recorded test call requested for COc1ccc(Cn2c(=O)[nH]c3cc(C(=O)NCCCN4CCN(c5cccc(Cl)c5)CC4)ccc3c2=O)cc1 inactive

* * *

targetOrSystem: Ubiquitin carboxyl-terminal hydrolase 8 (Homo sapiens) (UniProt P40818)
assayInfo: Ubiquitin-specific protease 8 inhibitors, concentration-effect, biochemical, validation of initial actives (AID 1645862);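 further: potency reflects inhibition of USP8 cleavage of a ubiquitin rhodamine substrate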
experimentalSetup: recombinant USP8 deubiquitinase activity assay
Active and inactive are the calls of the source. The rule behind the calls is not given here.
readoutType: IC50

See these solved cases before continuing.
- compound: "Cc1[nH]n2c(=O)c(Cl)c(-c3ccccc3)nc2c1-c1ccccc1"
  IC50: "> 40 µM (inactive)"
- compound: "N#Cc1ccccc1NC(=O)c1cc2c(s1)-c1ccccc1S(=O)(=O)C2"
  IC50: "> 40 µM (inactive)"
- compound: "O=C(/C=C/c1ccc2c(c1)OCO2)Nc1nc2n(n1)C(c1ccccc1)CC(=O)N2 (stereo not given)"
  IC50: "> 40 µM (inactive)"

Please report IC50 for every entry that follows.
1. COc1ccc(Nc2nnc(Cc3ccc(Cl)cc3)c(=O)[nH]2)cc1
2. Cc1cccc2nc(CSc3nc4ccc([N+](=O)[O-])cc4[nH]3)cn12
3. Cc1ccc(C(=O)O)cc1NC(=O)C(Sc1cccc(NC(=O)c2ccccc2C)c1)c1ccccc1 (stereo not given)
4. O=C(Nc1cccc([N+](=O)[O-])c1)Nc1ccc2snnc2c1
5. O=C(CSc1nc2ccccc2[nH]1)Nc1ccc2c(c1)OCCO2
6. CC1(C(=O)NCc2ccc(F)cc2)Cn2nc(-c3ccco3)cc2C(=O)N1c1ccc2c(c1)OCCO2 (stereo not given)

1. 29.2 µM
2. > 40 µM (inactive)
3. > 40 µM (inactive)
4. 14.8 µM
5. > 40 µM (inactive)
6. > 40 µM (inactive)

Please report IC50 for every entry that follows.
1. O=C(CSc1ccc2nnc(-c3ccc(Cl)cc3)n2n1)N1CCCCC1
2. O=C(Cn1cnc(-c2noc(-c3cccc(F)c3)n2)c1)Nc1ccccc1
3. Cc1ccc(-n2cc(C(=O)NCCCc3ccccc3)nn2)cc1
4. O=C(Oc1ccc2cc(Br)ccc2c1)c1ccncc1
5. O=C(Nc1cccc2ccccc12)N1CCC(c2nc3c(nnn3Cc3ccc(F)cc3)c(=O)[nH]2)CC1
6. N#Cc1cccnc1N1CCN(C(=O)Nc2cccc3ccccc23)CC1
7. O=c1[nH]c(C2CCN(S(=O)(=O)c3ccc(S(=O)(=O)NC4CCCCC4)cc3)CC2)nc2c1nnn2Cc1ccc(F)cc1
8. Cc1cc(N2CCN(c3ncccn3)CC2)nc2ccc(NC(=O)Cn3nc([N+](=O)[O-])c(Br)c3C)cc12

1: > 40 µM (inactive); 2: > 40 µM (inactive); 3: > 40 µM (inactive); 4: > 40 µM (inactive); 5: > 40 µM (inactive); 6: > 40 µM (inactive); 7: > 40 µM (inactive); 8: > 40 µM (inactive)

Please report IC50 for every entry that follows.
1. Cc1ccc(C2c3[nH]c4ccccc4c3C[C@H]3C(=O)N(c4ccc(C(=O)NCCc5ccccc5)cc4)C(=O)N23)cc1 (stereo not given in full)
2. COc1ccc(Sc2nc3ccccc3n3cnnc23)cc1
3. O=C(COc1ccc(Cl)cc1Cl)Nc1ccc2[nH]c(=O)[nH]c2c1

> 40 µM (inactive)
32.7 µM
> 40 µM (inactive)

* * *

targetOrSystem: UniProt P40818
assayInfo: Ubiquitin-specific protease 8 inhibitors, concentration-effect, biochemical, validation of initial actives (AID 1645862);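 further: potency reflects inhibition of USP8 cleavage of a ubiquitin rhodamine substrate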
experimentalSetup: recombinant USP8 deubiquitinase activity assay
Activity calls are given as the source filed them. No rule for the calls is given here.
readoutType: IC50

- molecule: "CSc1nc2ncn(CC(=O)Nc3ccc(Br)cc3)c(=O)c2s1"
  IC50: "> 40 µM (inactive)"

Please report IC50 for every entry that follows.
1. COc1ccc2[nH]c(=O)c(CN(C)C(=O)c3ccc([N+](=O)[O-])cc3)cc2c1
2. COc1ccc(NC(=O)Cn2c(=O)n(CCCCC(=O)NCc3ccco3)c(=O)c3ccccc32)cc1Cl
3. COc1ccccc1Nc1ncc(C(=O)NCc2ccc(F)cc2)c2ccccc12
4. COc1cccc2cc(C(=O)Nc3nc(-c4ccncc4)cs3)oc12
5. O=C(CCc1ccc(F)cc1)N1CCOC(CCc2cc(=O)[nH]cn2)C1 (centres undefined)
6. CC[C@H](C)[C@H](NC(=O)[C@H]([C@@H](C)CC)N(C)C(C)=O)C(=O)N[C@H](C(=O)N[C@@H](CC(C)C)C(=O)C1(C)CO1)[C@@H](C)O (some centres undefined)

1. > 40 µM (inactive)
2. > 40 µM (inactive)
3. > 40 µM (inactive)
4. 19.9 µM
5. > 40 µM (inactive)
6. > 40 µM (inactive)

Please report IC50 for every entry that follows.
1. CC1=C(C)C(N(c2ccccc2)c2ccccc2)N(CCC(C)C)C1=O (centres undefined)
2. Nc1ccc(C(=O)OCC(=O)NC2CCCc3ccccc32)cc1[N+](=O)[O-] (centres undefined)

["37.7 µM", "> 40 µM (inactive)"]

* * *

targetOrSystem: UniProtKB P40818
assayInfo: Ubiquitin-specific protease 8 inhibitors, concentration-effect, biochemical, validation of initial actives (AID 1645862);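 further: potency reflects inhibition of USP8 cleavage of a ubiquitin rhodamine substrate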
experimentalSetup: recombinant USP8 deubiquitinase activity assay
Activity calls are given as the source filed them. No rule for the calls is given here.
Write down the outcome that applies. Available outcomes: Y (active), N (inactive)

As a guide, the following entries are already answered.
- compoundSmiles: "CCNS(=O)(=O)c1ccc(-c2ccc(-n3cnnn3)cc2)cc1"
  cat: "N"
- compoundSmiles: "Cc1ccc2c(CNCCC3=CCCCC3)c(C(=O)O)n(C)c2c1"
  cat: "N"
- compoundSmiles: "Cc1cccc(C(=O)OCC(=O)Nc2ccc3[nH]c(=O)[nH]c3c2)c1C"
  cat: "N"

Recorded test call requested for Cc1ccc(Nc2nc(O)c(CC(=O)Nc3ccccc3C)s2)cc1C N

Next record, please: O=C(Nc1c2c(nn1-c1ccc([N+](=O)[O-])cc1)CSC2)c1c(F)cccc1F N

Next record, please: CC(=O)c1cccc(NC(=O)COC(=O)c2sc3cc(F)ccc3c2Cl)c1 N

Next record, please: N=C1/C(=C/c2cn(Cc3ccccc3F)c3ccccc23)C(=O)N=C2SC(C(F)(F)F)=NN12 N

Next record, please: CCc1nc(SCC(=O)Nc2ccc(Cl)c(Cl)c2)c2oc3ccccc3c2n1 N

Next record, please: CC/C=C\C/C=C\C/C=C\CCCCCCCC(=O)O Y

Next record, please: O=S(=O)(Nc1cccc(O)c1)c1ccc2oc3ccc(S(=O)(=O)Nc4cccc(O)c4)cc3c2c1 N

* * *

targetOrSystem: Ubiquitin carboxyl-terminal hydrolase 8 (Homo sapiens)
assayInfo: Ubiquitin-specific protease 8 inhibitors, concentration-effect, biochemical, validation of initial actives (AID 1645862);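 further: potency reflects inhibition of USP8 cleavage of a ubiquitin rhodamine substrate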
experimentalSetup: recombinant USP8 deubiquitinase activity assay
The source made the active and inactive calls. The rule behind the calls is not given here.
Write down the outcome that applies. Available outcomes: active, inactive

As a guide, the following entries are already answered.
- compound: "Cn1cc(NC(=O)Nc2cccc3ccccc23)c2ccccc21"
  cat: "inactive"
- compound: "Cc1ccc2cc(-c3noc(CCC(=O)NC4CCCC4)n3)c(=O)[nH]c2c1"
  cat: "inactive"
- compound: "Cc1c(-c2nsc(NC(=O)c3ccc(Cl)cc3)n2)nnn1-c1ccccc1F"
  cat: "inactive"
- compound: "O=C(Nc1ccccc1-c1nc(-c2ccccn2)no1)c1cc(Cl)ccc1Cl"
  cat: "inactive"
- compound: "O=C(C1=CSCCO1)N1CCc2ccccc2C1"
  cat: "inactive"
- compound: "CC(C)(C)C(=O)Nc1ccc(C(=O)Nc2cccc(-c3nnc(-c4ccccc4)o3)c2)cc1"
  cat: "inactive"
- compound: "O=C(CNC(=O)OCc1ccccc1)Nc1ccc(Br)cc1C(=O)c1ccccc1Cl"
  cat: "inactive"
- compound: "COc1ccc(-c2cc3nc([C@H](C)NC(=O)Cc4cc(F)ccc4F)nn3cn2)cc1"
  cat: "inactive"

Recorded test call requested for O=C(Cn1nc2c3c4c(sc3ncn2c1=O)CCCCC4)Nc1ccc(Cl)cc1F active

Next record, please: Fc1cccc(Nc2ncnc3c2oc2ccccc23)c1 inactive

* * *

targetOrSystem: UniProtKB P40818
assayInfo: Ubiquitin-specific protease 8 inhibitors, concentration-effect, biochemical, validation of initial actives (AID 1645862);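 further: potency reflects inhibition of USP8 cleavage of a ubiquitin rhodamine substrate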
experimentalSetup: recombinant USP8 deubiquitinase activity assay
Activity calls are given as the source filed them. How the calls were made is not given here.
Write down the outcome that applies. Available outcomes: yes for active, no for inactive

As a guide, the following entries are already answered.
- molecule: "Cc1cccc(NC(=O)c2cc(-c3ccc(C)c(C)c3O)n[nH]2)c1"
  cat: "no"
- molecule: "COc1cccc(NC(=O)C(Sc2cccc(NC(=O)c3ccccc3F)c2)c2ccccc2)c1 (stereo not given)"
  cat: "no"
- molecule: "Cc1ccccc1NC(=O)Cn1c(=O)n(-c2ccc(CC(=O)NCCc3ccccc3)cc2)c(=O)c2sccc21"
  cat: "yes"
- molecule: "O=C(Cn1c(=O)n(CC2CCC(C(=O)NCCc3ccccc3)CC2)c(=O)c2ccccc21)NCc1ccco1 (stereo not given)"
  cat: "no"
- molecule: "COc1cc(=O)c(C(=O)Nc2ccc(C#N)cc2)nn1-c1cccc(F)c1"
  cat: "no"

Recorded test call requested for COC(=O)c1ccc2c(=O)n(CCCCCC(=O)NCCC3=CCCCC3)c(=O)[nH]c2c1 no

Next record, please: CCOc1ccc(NC(=O)Cn2c(-c3ccccc3)cc(C(C)=O)c2C)cc1 no

Next record, please: O=C(CSc1nc(=O)n(Cc2ccncc2)c2c1CCC2)NCCc1ccccc1 no

Next record, please: O=C(Nc1cccc(C(F)(F)F)c1)c1cc2c(s1)-c1ccccc1OC2 no

Next record, please: Cc1ccc(-c2nnc3ccc(SCC(=O)N4CCCc5ccccc54)nn23)cc1 no

The origin of these recorded values is PubChem BioAssay AID1645862.
